Data provenance is patent US12378249B2.

# test-target: HPK1 (Homo sapiens (Human), UniProt Q92918, S171E/T165E)
# Sequence (Q92918 whole entry T165E/S171E): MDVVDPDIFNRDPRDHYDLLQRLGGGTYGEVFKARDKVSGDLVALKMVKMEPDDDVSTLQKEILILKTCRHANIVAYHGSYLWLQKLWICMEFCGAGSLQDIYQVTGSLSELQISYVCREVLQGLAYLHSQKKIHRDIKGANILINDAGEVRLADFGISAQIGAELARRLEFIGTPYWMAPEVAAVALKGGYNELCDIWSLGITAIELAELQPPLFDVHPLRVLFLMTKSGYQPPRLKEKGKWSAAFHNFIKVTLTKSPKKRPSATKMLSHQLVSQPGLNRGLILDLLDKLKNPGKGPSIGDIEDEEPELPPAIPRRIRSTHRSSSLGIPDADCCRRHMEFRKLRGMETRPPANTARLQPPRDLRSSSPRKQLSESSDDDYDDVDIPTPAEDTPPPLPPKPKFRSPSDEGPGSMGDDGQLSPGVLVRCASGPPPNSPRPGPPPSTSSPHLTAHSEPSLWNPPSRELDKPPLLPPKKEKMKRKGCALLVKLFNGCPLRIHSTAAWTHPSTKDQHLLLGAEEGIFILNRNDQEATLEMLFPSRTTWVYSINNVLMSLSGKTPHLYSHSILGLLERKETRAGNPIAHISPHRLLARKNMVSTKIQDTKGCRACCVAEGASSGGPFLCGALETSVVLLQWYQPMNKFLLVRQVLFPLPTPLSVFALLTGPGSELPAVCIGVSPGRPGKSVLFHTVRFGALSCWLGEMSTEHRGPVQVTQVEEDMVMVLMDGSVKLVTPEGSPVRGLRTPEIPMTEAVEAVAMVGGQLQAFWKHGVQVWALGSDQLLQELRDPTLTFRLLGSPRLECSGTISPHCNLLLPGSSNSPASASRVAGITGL
# assay-details: HPK1-FL HTRF Enzymatic Assay (HTRF)
# Assay type: biochemical
# condition-parameters: HPK full length T165E S171E 0.125 nM, ATP 1 mM, Biotin-SLP76 100 nM, read-out: HPK1 Ki (nM), H = HTRF
Categories are assigned from the measured Ki using these intervals: bin 1: < 0.04 nM; bin 2: ≥ 0.04 nM and < 0.2 nM; bin 3: ≥ 0.2 nM

Incoming: Could you tell me which band Cc1c(-c2cc3cc(Nc4cc5n(n4)Cc4nccn4CC5)ncc3cc2F)cnc2c1NCCO2 [Compound 143] belongs to?
Outgoing: bin 1

Incoming: Could you tell me which band Cc1c(N)cncc1-c1cc2cc(Nc3cc4n(n3)CC(=O)N(C)C[C@@]4(C)O)ncc2cc1F (single isomer, unassigned) [Compound 185a] belongs to?
Outgoing: bin 2

Incoming: Could you tell me which band Cc1c(-c2cc3cc(Nc4cc5n(n4)CC(=O)N(C)CC5)ncc3cc2F)cnc2c1NS(=O)(=O)CO2 [Compound 193] belongs to?
Outgoing: bin 3

Incoming: Could you tell me which band Cc1ncc(-c2cc3cc(Nc4cc5n(n4)CC(=O)N(C(C)C)CC5)ncc3cc2F)c(C)c1N [Compound 126] belongs to?
Outgoing: bin 2

Incoming: Could you tell me which band Cc1c(-c2cc3cc(Nc4cc5n(n4)CC(=O)N(C)CC5)ncc3cc2F)cnc2c1[C@](C)(O)CCO2 (single isomer, unassigned) [Compound 226b] belongs to?
Outgoing: bin 3

Incoming: Could you tell me which band Cc1c(N)cncc1-c1cc2cc(Nc3cc4n(n3)CC(=O)N(CCO)CC4)ncc2cc1F [Compound 159] belongs to?
Outgoing: bin 1

Incoming: Could you tell me which band Cc1c(-c2cc3cc(Nc4cc5n(n4)CC(=O)N(C)CC5)ncc3cc2F)cnc2c1NCC(C)(C)[C@H]2O (single isomer, unassigned) [Compound 241a] belongs to?
Outgoing: bin 2

Incoming: Could you tell me which band Cc1c(N)cncc1-c1cc2cc(Nc3cc4n(n3)CC(=O)N([C@@H](C)CO)CC4)ncc2cc1F (single isomer, unassigned) [Compound 149a] belongs to?
Outgoing: bin 2

Incoming: Could you tell me which band Cc1c(-c2cc3cc(Nc4ccn([C@@H](C)C#N)n4)ncc3cc2F)cnc2c1NCCO2 (single isomer, unassigned) [Compound 109b] belongs to?
Outgoing: bin 3

Incoming: Could you tell me which band Cc1c(-c2ccc3cnc(Nc4cc5n(n4)CC(=O)N(CCO)CC5)cc3c2F)cnc2c1NCCO2 [Compound 146] belongs to?
Outgoing: bin 1

Incoming: Could you tell me which band Cc1c(N)cncc1-c1cc2cc(Nc3cc4n(n3)CC(=O)N(C(C)(C)C)C[C@H]4F)ncc2cc1F (single isomer, unassigned) [Compound 167a] belongs to?
Outgoing: bin 2

Incoming: Could you tell me which band CN[C@@H]1CCN(c2cc(C)c(-c3cc4cc(Nc5cc6n(n5)CC(=O)N(C)CC6)ncc4cc3F)cn2)C1 (single isomer, unassigned) [Compound 206a] belongs to?
Outgoing: bin 3

###

# test-target: HPK1 (Homo sapiens (Human))
# assay-details: HPK1 Lantha Binding Assay (Lanth)
# condition-parameters: 2 nM HPK1, 15 nM Tracer222, Morrison Ki fit, read-out: HPK1 Ki (nM), L = Lanth
readout-kind: log10 Ki (log10 of the value in nM)
Scale: log10; quantity: Ki; unit before log: nM

Incoming: Please report the measured log10 Ki for CN1CCC(Cn2cc(Nc3cc4cc(-c5c(Cl)cccc5Cl)ccc4cn3)cn2)C1 (racemic) [Compound 102]
Outgoing: 1.83

Incoming: Please report the measured log10 Ki for Cc1ccnc(Nc2cc3cc(-c4cnccc4C)ccc3cn2)c1 [Compound 108]
Outgoing: 0.64

Incoming: Please report the measured log10 Ki for Clc1cccc(Cl)c1-c1ccc2cnc(Nc3cnn(C4CCOC4)c3)cc2c1 (racemic) [Compound 103]
Outgoing: 2.26

Incoming: Please report the measured log10 Ki for Fc1cccc(Cl)c1-c1ccc2cnc(Nc3ccncn3)cc2c1 [Compound 104]
Outgoing: 1.76

Incoming: Please report the measured log10 Ki for Clc1cccc(Cl)c1-c1ccc2cnc(Nc3ccncn3)cc2c1 [Compound 101]
Outgoing: 2.04

Incoming: Please report the measured log10 Ki for Cc1ccncc1-c1ccc2cnc(Nc3cc(C(F)F)ccn3)cc2c1 [Compound 106]
Outgoing: 0.82

Incoming: Please report the measured log10 Ki for Cc1cc(Nc2cc3cc(-c4cnccc4C)ccc3cn2)ncn1 [Compound 107]
Outgoing: 0.95
